B1: NECAB1 (parent)
chain: FSPNSPQFNVSGPGLLEEDNQWMT

Variants of: B1
Experiment: protein stability index of a GFP-peptide fusion (GPS, HEK-293T) (PSI 1-6); higher = more stable;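 further: lentivirally expressed fusions sorted by FACS into six bins by GFP to DsRed ratio, PSI derived from sequencing read proportions per bin multiplied by bin number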
Measurement parameters: c terminus: a fixed tail appended
Attribute measured: protein stability index
When you answer, write just the number.

IN: // returns reported protein stability index for input L16K
OUT: 2.94

IN: Any idea what protein stability index was measured for P3S ?
OUT: 2.68

IN: Please look up its protein stability index: E18I
OUT: 2.4

IN: Which protein stability index reading was recorded for the variant L15R ?
OUT: 2.51

IN: Consider the variant P13L and give its measured protein stability index.
OUT: 2.39
